- study-target: T1, SA1 (STAG1), full length (UniProt Q8WVM7 1-1258)
- T1 sequence: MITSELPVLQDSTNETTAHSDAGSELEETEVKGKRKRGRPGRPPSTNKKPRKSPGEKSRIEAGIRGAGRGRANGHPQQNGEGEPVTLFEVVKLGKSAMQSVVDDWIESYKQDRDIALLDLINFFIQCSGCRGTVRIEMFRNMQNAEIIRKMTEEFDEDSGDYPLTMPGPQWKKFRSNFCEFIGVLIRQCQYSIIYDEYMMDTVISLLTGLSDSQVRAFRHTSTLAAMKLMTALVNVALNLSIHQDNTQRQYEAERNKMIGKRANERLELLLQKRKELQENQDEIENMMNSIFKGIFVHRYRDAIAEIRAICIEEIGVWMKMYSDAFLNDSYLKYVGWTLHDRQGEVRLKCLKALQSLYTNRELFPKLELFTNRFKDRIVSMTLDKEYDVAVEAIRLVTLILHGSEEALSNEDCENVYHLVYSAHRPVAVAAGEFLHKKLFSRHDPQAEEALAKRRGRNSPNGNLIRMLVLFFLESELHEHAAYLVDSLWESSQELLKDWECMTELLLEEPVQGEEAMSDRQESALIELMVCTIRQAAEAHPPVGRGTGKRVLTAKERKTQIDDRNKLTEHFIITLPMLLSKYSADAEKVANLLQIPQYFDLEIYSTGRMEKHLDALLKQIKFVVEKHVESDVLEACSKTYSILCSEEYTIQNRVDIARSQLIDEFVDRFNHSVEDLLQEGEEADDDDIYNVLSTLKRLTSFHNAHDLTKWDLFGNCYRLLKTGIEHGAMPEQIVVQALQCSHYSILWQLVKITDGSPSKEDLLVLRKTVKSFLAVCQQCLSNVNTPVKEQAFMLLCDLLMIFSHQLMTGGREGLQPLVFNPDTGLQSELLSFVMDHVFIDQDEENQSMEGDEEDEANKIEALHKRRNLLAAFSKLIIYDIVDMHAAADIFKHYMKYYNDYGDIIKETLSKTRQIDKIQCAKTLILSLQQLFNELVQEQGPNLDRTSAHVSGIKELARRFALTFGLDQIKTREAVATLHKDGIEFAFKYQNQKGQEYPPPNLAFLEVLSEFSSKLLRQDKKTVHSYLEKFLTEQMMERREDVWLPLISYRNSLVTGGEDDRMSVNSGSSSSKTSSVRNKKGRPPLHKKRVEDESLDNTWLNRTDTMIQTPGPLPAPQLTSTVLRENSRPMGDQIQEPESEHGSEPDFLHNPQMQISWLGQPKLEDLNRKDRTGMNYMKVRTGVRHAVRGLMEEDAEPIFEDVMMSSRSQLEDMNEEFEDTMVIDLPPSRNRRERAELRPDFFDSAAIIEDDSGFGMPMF
- measurement-description: fluorescence anisotropy; Anisotropy: 20 mM Hepes pH 7.5, 0.1 mM MgCl2, 0.5 mM DTT, 100 mM KCl, 1 nM DNA; AFM: 20 mM Hepes pH 7.5, 100 mM KCl, 0.1 mM MgCl2, room temperature, 20 min
- run-conditions: protein: recombinant; label: Alexa 488
recorded-metric: pKd
One number for each entry, as −log10 of the molar value.

Inquiry: // lookup pKd for ss66 (Alexa ss66) (ssDNA) DNA: CTGGATCCGTACAGTGTAAGGGTGAGTGGTTGGGTGTGTGGGTGTTGATGTAGAACAAGAATTCGA
Reply text: 7.44
